ASSAY_TARGET: T1, GST-human NOGO-A56 (human, UniProt P08515 1-218 = GST)
T1 construct: GST-tagged fusion expressed in E. coli BL21 and purified on glutathione-sepharose; coated on ELISA plates or amine-coupled to a CM5 chip; also called hNOGO; recombinant human NOGO
T1 sequence (P08515 1-218, tags or fused parts left off): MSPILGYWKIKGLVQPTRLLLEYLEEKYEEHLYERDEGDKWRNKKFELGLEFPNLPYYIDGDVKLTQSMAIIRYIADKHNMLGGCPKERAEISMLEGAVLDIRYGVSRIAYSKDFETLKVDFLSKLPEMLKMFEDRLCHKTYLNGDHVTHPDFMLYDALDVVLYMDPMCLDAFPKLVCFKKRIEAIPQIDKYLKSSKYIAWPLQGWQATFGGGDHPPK
ASSAY_NAME: SPR (Biacore 3000), GST-human NOGO-A56 on CM5, antibody as analyte; single experiment
READOUT_KIND: Kd (nM)

{"columns": ["BINDER", "RECORDED_VALUE"],
 "data": [
  ["HcLc (chimera of 2A10: murine 2A10 VH and VL with human IgG constant regions) (antibody, V domains shown, Human gamma1 mutated constant region and human kappa; also called 2A10 chimeric antibody; the chimera) VH: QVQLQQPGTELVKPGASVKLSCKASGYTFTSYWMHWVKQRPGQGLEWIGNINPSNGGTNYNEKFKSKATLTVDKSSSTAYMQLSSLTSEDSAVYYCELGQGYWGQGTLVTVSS VL: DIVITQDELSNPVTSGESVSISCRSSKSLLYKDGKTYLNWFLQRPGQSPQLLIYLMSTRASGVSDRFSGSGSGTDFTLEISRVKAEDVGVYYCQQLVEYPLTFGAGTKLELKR", 1.6]
]}
